Assay: Stability in Simulated Gastric Fluid (SGF)
Type: in vitro ADME
Parameters: key: % parent compound remaining relative to 0-minute sample
Conditions: % remaining at 1 h in simulated gastric fluid; the 15th table
Measured quantity: SGF

CCOC(=O)OCSc1nc(=O)c2c(ccn2CSc2nc(=O)c3[nH]ccc3n2CCOC(C)C)n1CCOC(C)C 45% remaining
CC(C)CNC(=O)OCSc1nc(=O)c2c(ccn2COC(=O)NCC(C)C)n1CCOC(C)C 98% @ 1 h

Next, consider the following molecule.
Task: Name the reported SGF value associated with the molecule CC(C)OCCn1c(=S)[nH]c(=O)c2c1ccn2C(=O)OC(C)(C)C
Result: 15% @ 1 h

----------
Assay: Plasma Stability
Format: in vitro ADME, human
Settings: % remaining at 1 h in human plasma; the 17th table
# label = Criterion met if human Plasma stability < 90 % remaining else Criterion not met

Compound	Category
CC(C)NC(=O)n1ccc2c1c(=O)[nH]c(=S)n2CCOC(C)C	Criterion not met
CCCCCCCOC(=O)OCSc1nc(=O)c2c(ccn2COC(=O)OCCCCCCC)n1CCOC(C)C	Criterion met
CCCCCOC(=O)OCn1ccc2c1c(=O)nc(S)n2CCOC(C)C	Criterion met
CCCNC(=O)n1ccc2c1c(=O)[nH]c(=S)n2CCOC(C)C	Criterion not met
CCCCCCOC(=O)OCn1ccc2c1c(=O)nc(S)n2CCOC(C)C	Criterion met
CC(C)OCCn1c(=S)[nH]c(=O)c2c1ccn2C(=O)Nc1ccccc1	Criterion not met
CCCCCCOC(=O)OCSc1nc(=O)c2c(ccn2COC(=O)OCCCCCC)n1CCOC(C)C	Criterion met
CCCCCOC(=O)OCSc1nc(=O)c2c(ccn2COC(=O)OCCCCC)n1CCOC(C)C	Criterion met
CCCCCOC(=O)OCn1c(=O)c2c(ccn2COC(=O)OCCCCC)n(CCOC(C)C)c1=S	Criterion met
CCC(C)NC(=O)n1ccc2c1c(=O)[nH]c(=S)n2CCOC(C)C (stereo not shown)	Criterion not met

Task: Identify whether the compound CC(C)OCCn1c(=S)[nH]c(=O)c2c1ccn2C(=O)NCc1ccccc1 records human Plasma stability below 90 % remaining.
Result: Criterion not met

Task: Identify whether the compound CCCCCCCOC(=O)OCn1ccc2c1c(=O)nc(S)n2CCOC(C)C records human Plasma stability below 90 % remaining.
Result: Criterion met

Task: Identify whether the compound CC(=O)OCc1ccccc1N(C)C(=O)OCn1ccc2c1c(=O)nc(S)n2CCOC(C)C records human Plasma stability below 90 % remaining.
Result: Criterion met

Task: Identify whether the compound CC(=O)OCc1ccccc1N(C)C(=O)OC(C)n1ccc2c1c(=O)nc(S)n2CCOC(C)C (stereo not shown) records human Plasma stability below 90 % remaining.
Result: Criterion not met

----------
Assay: Stability in Simulated Gastric Fluid (SGF)
Format: in vitro ADME
Set-up: key: % parent compound remaining relative to 0-minute sample
Settings: % @ 1 h (remaining) in simulated gastric fluid
# label = condition met if SGF < 80 % @ 1 h else condition not met

Compound	Category
CC(C)OCCn1c(SCOC(=O)N(C)CCc2ccccc2)nc(=O)c2c1ccn2COC(=O)N(C)CCc1ccccc1.O=C(O)C(F)(F)F [Example 176]	condition not met
CC(C)OCCn1c(SCOC(=O)N(C)CCc2ccccc2)nc(=O)c2[nH]ccc21.O=C(O)C(F)(F)F [Example 175]	condition not met
CCCC(=O)OCSc1nc(=O)c2c(ccn2COC(=O)CCC)n1CCOC(C)C [Example 155]	condition met
CCN(C)C(=O)OCSc1nc(=O)c2c(ccn2COC(=O)N(C)CC)n1CCOC(C)C.O=C(O)C(F)(F)F [Example 169]	condition not met
CCC(=O)OCn1ccc2c1c(=O)[nH]c(=S)n2CCOC(C)C [Example 156]	condition not met

Attention now turns to another entry.
Task: Identify whether the compound CCN(C)C(=O)OCSc1nc(=O)c2[nH]ccc2n1CCOC(C)C [Example 163] records SGF below 80 % @ 1 h.
Result: condition not met

----------
Assay: Caco-2 Permeability Assay
Assay type: in vitro ADME, human
Settings: human, Caco-2, pH 7.4, Caco-2 monolayer
Quick reference: Papp at 90 min, 10 µM of the listed items.
Please respond with the number in ×10⁻⁶ cm/s and leave the unit unwritten.

Here are 3 compounds together with their reported answers.
Compound	Papp at 90 min, 10 µM / ×10⁻⁶ cm/s
CCN(C)C(=O)OCSc1nc(=O)c2[nH]ccc2n1CCOC(C)C	4.2
CCCC(=O)OCn1ccc2c1c(=O)[nH]c(=S)n2CCOC(C)C	4.03
CC(C)OCCn1c(=S)[nH]c(=O)c2c1ccn2COC(=O)CCNC(=O)[C@@H](N)CCc1ccccc1.O=C(O)C(F)(F)F	0.287

Task: Name the reported Papp at 90 min, 10 µM value associated with the compound COc1ccc(N(C)C(=O)OCSc2nc(=O)c3[nH]ccc3n2CCOC(C)C)cc1
Result: 10.5

Task: Name the reported Papp at 90 min, 10 µM value associated with the compound CC(C)OCCn1c(=S)[nH]c(=O)c2c1ccn2COC(=O)CCC(=O)OC(C)(C)C
Result: 13.5

Task: Name the reported Papp at 90 min, 10 µM value associated with the compound CC(C)OCCn1c(SCOC(=O)C(C)(C)C)nc(=O)c2c1ccn2COC(=O)C(C)(C)C
Result: 5.11

Task: Name the reported Papp at 90 min, 10 µM value associated with the compound CC(C)C[C@@H](N)C(=O)OCCC(=O)OCn1ccc2c1c(=O)[nH]c(=S)n2CCOC(C)C.O=C(O)C(F)(F)F
Result: 0.12

Task: Name the reported Papp at 90 min, 10 µM value associated with the compound CC(C)OCCn1c(SCOC(=O)CCCOC(=O)[C@H](N)Cc2ccccc2)nc(=O)c2c1ccn2COC(=O)CCCOC(=O)[C@H](N)Cc1ccccc1.O=C(O)C(F)(F)F.O=C(O)C(F)(F)F
Result: 0.277

Task: Name the reported Papp at 90 min, 10 µM value associated with the compound CC(C)OCCn1c(=S)[nH]c(=O)c2c1ccn2COC(=O)CCCCNC(=O)C1CCCN1C(=O)OC(C)C.O=C(O)C(F)(F)F (stereo not drawn)
Result: 2.84

Task: Name the reported Papp at 90 min, 10 µM value associated with the compound Cc1ccc(OC(=O)OCn2ccc3c2c(=O)[nH]c(=S)n3CCOC(C)C)cc1
Result: 0.59

Task: Name the reported Papp at 90 min, 10 µM value associated with the compound CC(C)OCCn1c(=S)n(COC(=O)CNC(=O)OC(C)(C)C)c(=O)c2c1ccn2COC(=O)CNC(=O)OC(C)(C)C
Result: 5.78

Task: Name the reported Papp at 90 min, 10 µM value associated with the compound Cc1ccc(N(C)C(=O)OCSc2nc(=O)c3[nH]ccc3n2CCOC(C)C)cc1
Result: 23.5

----------
Assay: Plasma Stability
Format: in vitro ADME, human
Settings: % remaining at 1 h in human plasma
Measured quantity: human Plasma stability (% remaining)
Please respond with the number in % remaining and leave the unit unwritten.

Molecule	human Plasma stability / % remaining
CC(C)OCCn1c(=S)[nH]c(=O)c2c1ccn2COC(=O)CCNC(=O)[C@H](Cc1ccc(O)cc1)NC(=O)OC(C)(C)C.O=C(O)C(F)(F)F	63
CC(C)OCCn1c(=S)[nH]c(=O)c2c1ccn2COC(=O)OC1CN(C(=O)OC(C)(C)C)C1	3
CC(C)OCCn1c(=S)[nH]c(=O)c2c1ccn2COC(=O)CCNC(=O)CN(C)C(=O)CNC(=O)OC(C)(C)C.O=C(O)C(F)(F)F	49
CC(C)OCCn1c(=S)[nH]c(=O)c2c1ccn2COC(=O)CCCCNC(=O)[C@@H](NC(=O)OC(C)(C)C)[C@@H](C)O.O=C(O)C(F)(F)F	30
CC(C)C[C@H](N)C(=O)NCCC(=O)OCn1ccc2c1c(=O)[nH]c(=S)n2CCOC(C)C.O=C(O)C(F)(F)F	40
CC(C)OCCn1c(=S)[nH]c(=O)c2c1ccn2COC(=O)C1CN(C(=O)OC(C)(C)C)C1	1

Task: Name the reported human Plasma stability value associated with the molecule CC(C)OCCn1c(=S)[nH]c(=O)c2c1ccn2COC(=O)CCNC(=O)[C@@H](N)[C@@H](C)O.O=C(O)C(F)(F)F
Result: 88

----------
Experiment: Stability in Simulated Intestinal Fluid (SIF)
Type: in vitro ADME
Design: key: % parent compound remaining relative to 0-minute sample
Conditions: bare number, no % and no time given
Measured quantity: SIF
Reply with the value as a number alone.

Here are 3 compounds together with their reported answers.
Compound	Measured number
CC(C)OCCn1c(SCOC(=O)N(CC(F)(F)F)CC(F)(F)F)nc(=O)c2[nH]ccc21 [Example 96]	97
CC(C)OCCn1c(SCOC(=O)N(C)CC(F)(F)F)nc(=O)c2c1ccn2COC(=O)N(C)CC(F)(F)F [Example 95]	95
CC(C)OCCn1c(=S)n(COC(=O)N(CC(F)(F)F)CC(F)(F)F)c(=O)c2c1ccn2COC(=O)N(CC(F)(F)F)CC(F)(F)F [Example 98]	80

Task: Name the reported SIF value associated with the compound COCCOCCC(=O)OCn1ccc2c1c(=O)[nH]c(=S)n2CCOC(C)C [Example 93]
Result: 38

Task: Name the reported SIF value associated with the compound CC(C)OCCn1c(SCOC(=O)N(CC(F)(F)F)CC(F)(F)F)nc(=O)c2c1ccn2COC(=O)N(CC(F)(F)F)CC(F)(F)F [Example 97]
Result: 96

Task: Name the reported SIF value associated with the compound CC(C)OCCn1c(SCOC(=O)N(C)CC(F)(F)F)nc(=O)c2[nH]ccc21 [Example 94]
Result: 95
